# Assayed system: LOX3 (Arabidopsis thaliana)
# Sequence (Q9LNR3 71-919): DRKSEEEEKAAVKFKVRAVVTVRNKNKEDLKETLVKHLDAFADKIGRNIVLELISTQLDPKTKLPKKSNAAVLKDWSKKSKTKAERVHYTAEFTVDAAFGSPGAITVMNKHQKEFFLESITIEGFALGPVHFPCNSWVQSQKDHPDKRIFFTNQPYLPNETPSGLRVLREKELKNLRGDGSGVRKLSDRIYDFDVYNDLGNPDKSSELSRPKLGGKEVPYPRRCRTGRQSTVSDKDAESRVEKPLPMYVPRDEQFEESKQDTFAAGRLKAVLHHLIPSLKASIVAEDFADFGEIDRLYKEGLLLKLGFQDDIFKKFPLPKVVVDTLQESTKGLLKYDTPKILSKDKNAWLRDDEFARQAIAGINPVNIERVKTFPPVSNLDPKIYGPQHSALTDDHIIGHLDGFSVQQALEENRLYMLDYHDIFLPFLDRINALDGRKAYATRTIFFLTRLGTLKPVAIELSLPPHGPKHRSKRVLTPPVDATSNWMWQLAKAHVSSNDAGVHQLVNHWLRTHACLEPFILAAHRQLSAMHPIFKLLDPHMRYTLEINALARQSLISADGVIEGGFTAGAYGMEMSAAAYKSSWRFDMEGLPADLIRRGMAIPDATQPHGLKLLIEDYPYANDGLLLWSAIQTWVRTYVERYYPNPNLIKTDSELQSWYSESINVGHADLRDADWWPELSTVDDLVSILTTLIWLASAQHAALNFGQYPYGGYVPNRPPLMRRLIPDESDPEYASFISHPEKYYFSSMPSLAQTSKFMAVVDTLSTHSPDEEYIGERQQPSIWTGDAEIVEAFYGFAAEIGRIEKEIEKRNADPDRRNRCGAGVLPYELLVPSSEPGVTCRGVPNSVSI
Parameter measured: IC50 (µM)

{"Compound": "CCC=CCC1C(=O)C=CC1CCCCCCCC(=O)O (stereo not drawn) [12-OPDA, cis-(+)-12-oxophytodienoic acid]", "Parameter measured": "IC50", "Reported result": 130}

----------
# Assayed system: LOX3 (Arabidopsis thaliana)
# Experimental details: LOX3 activity, oxygen electrode (polarography)
# Type: biochemical
# Parameters: made in house; host or cells: E. coli Nico21(DE3), pET15b
# Particulars: enzyme incubated with 280 µM chemical (1/10 vol of 2.8 mM), injected into 30 µM LeA, 50 mM Tris-HCl pH 7.2; vs solvent control; read-out: Polarography Relative Activity (%) LOX3

{"Compound": "CCC=CCC1C(=O)C=CC1CCCCCCCC(=O)O (stereo not drawn) [12-OPDA, cis-(+)-12-oxophytodienoic acid]", "activity at 280 µM": "60%"}
{"Compound": "CC/C=C\\CC1C(=O)CCC1CC(=O)OC (stereo not shown) [MJ, methyl jasmonate]", "activity at 280 µM": "85%"}
{"Compound": "O=C(O)c1ccccc1O", "activity at 280 µM": "101%"}
{"Compound": "O=C(O)/C=C/CCCCCCCCC(=O)O", "activity at 280 µM": "100%"}

----------
# Assayed system: LOX2 (Arabidopsis thaliana, UniProt P38418)
# Sequence (P38418 71-896): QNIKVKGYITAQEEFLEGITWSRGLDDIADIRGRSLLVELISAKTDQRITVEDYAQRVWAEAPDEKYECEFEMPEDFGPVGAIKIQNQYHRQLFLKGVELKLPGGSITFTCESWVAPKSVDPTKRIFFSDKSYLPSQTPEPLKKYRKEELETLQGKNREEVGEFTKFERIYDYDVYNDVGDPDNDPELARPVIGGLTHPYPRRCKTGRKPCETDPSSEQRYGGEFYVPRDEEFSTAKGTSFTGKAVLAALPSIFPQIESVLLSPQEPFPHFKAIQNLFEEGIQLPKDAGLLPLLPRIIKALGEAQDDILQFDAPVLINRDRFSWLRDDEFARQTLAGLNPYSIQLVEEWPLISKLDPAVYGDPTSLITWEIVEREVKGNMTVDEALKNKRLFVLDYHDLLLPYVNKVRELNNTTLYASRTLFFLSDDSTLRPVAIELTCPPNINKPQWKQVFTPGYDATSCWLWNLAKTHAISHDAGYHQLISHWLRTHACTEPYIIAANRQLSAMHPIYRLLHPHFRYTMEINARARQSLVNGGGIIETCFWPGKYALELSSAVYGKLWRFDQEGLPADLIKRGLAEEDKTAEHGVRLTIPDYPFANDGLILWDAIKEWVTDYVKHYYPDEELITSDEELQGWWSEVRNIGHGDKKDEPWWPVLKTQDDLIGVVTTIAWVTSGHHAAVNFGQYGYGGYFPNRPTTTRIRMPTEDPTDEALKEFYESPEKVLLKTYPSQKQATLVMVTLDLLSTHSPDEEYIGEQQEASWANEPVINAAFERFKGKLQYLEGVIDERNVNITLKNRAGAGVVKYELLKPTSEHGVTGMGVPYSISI
# Experimental details: LOX2 activity, oxygen electrode (polarography)
# Format: biochemical
# Parameters: made in house; host or cells: E. coli Nico21(DE3), pET15b
# Particulars: enzyme incubated with 280 µM chemical (1/10 vol of 2.8 mM), injected into 30 µM LeA, 50 mM Tris-HCl pH 7.2; vs solvent control; read-out: Polarography Relative Activity (%) LOX2

{"Compound": "O=C(O)/C=C/CCCCCCCCC(=O)O [TA, traumatic acid]", "activity at 280 µM / %": 95}
{"Compound": "CC/C=C\\CC1C(=O)CCC1CC(=O)OC (stereo not drawn) [MJ, methyl jasmonate]", "activity at 280 µM / %": 87}
{"Compound": "O=C(O)c1ccccc1O [SA, salicylic acid]", "activity at 280 µM / %": 96}

----------
# Photometry Relative activity (%) LOX2 listing for each entry below
# Assayed system: LOX2 (Arabidopsis thaliana)
# Experimental details: LOX2 activity, spectrophotometric (conjugated diene formation at 234 nm)
# Particulars: enzyme 0.225 µg/µL incubated 10 min 30 °C with 280 µM chemical; 4.8 µM LeA, 50 mM Tris-HCl pH 7.2; vs solvent control

{"Compound": "CC/C=C\\CC1C(=O)CCC1CC(=O)OC (stereo not drawn) [MJ, methyl jasmonate]", "Unit spec": "%", "Photometry Relative activity (%) LOX2": 62}
{"Compound": "O=C(O)/C=C/CCCCCCCCC(=O)O", "Unit spec": "%", "Photometry Relative activity (%) LOX2": 105}
{"Compound": "CCN1C(=O)C=CC1=O [NEM, N-ethylmaleimide]", "Unit spec": "%", "Photometry Relative activity (%) LOX2": 35}

From: paper PMC8508710
